- system: T1, HLA-A02.01 (human)
- T1 construct: Purified class I MHC
- assayRemarks: competition with radiolabeled reference peptide, purified MHC I
Each record here notes measured IC50.
Supply the numeric figure in nM, leaving out any unit text.

Check out these entries, answers already filled in.
{"binder": "VRLSSCVPVA (also called TGFBR2(-1))", "unitsLabel": "nM", "IC50": 1210}
{"binder": "GMNWRPILT (also called TP53, R248W)", "unitsLabel": "nM", "IC50": 1130}
{"binder": "YLTKWPKFFL (also called XPOT(-1))", "unitsLabel": "nM", "IC50": 42.9}
{"binder": "FVQGKDWGL (also called SPOP, F133L)", "unitsLabel": "nM", "IC50": 34}

[ask] Entry FALCGFWQI (also called SLC35F5(-1)) has what IC50?
[reply] 0.4
